Below, each entry is listed alongside its reported koff.
Molecular target: recombinant human BCMA-his protein (Acro biosystems, Cat #BCA-H522Y) (human) (UniProt Q02223)
Sequence (Q02223 1-54, stated change not applied): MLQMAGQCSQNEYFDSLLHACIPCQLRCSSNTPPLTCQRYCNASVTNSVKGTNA
Assay: BLI Octet RED96, antibody on AHC sensor, BCMA-his in solution

| BINDER | UNITS | koff |
| --- | --- | --- |
| huB1H2-V19 (antibody, human IgG1, kappa, V domains shown) VH: EVQLVQSGAEVKKPGSSVKVSCKASGYTLTNYVMHWMRQAPGQGLEWIGFIIPFNDGTKYNEHFKGRATLTSDKSTNTAYMELSSLRSEDTAVYYCARYDFEGYFDVWGAGTLVTVSS VL: DIQMTQSPSSLSASVGDRVTITCSASQDITNFLNWYQQKPGKAPKLLIYSTSRLHSGVPSRFSGSGSGTDYTLTISSLQPEDIATYYCQQYSNLPWTFGQGTKVEIKR | s⁻¹ | 0.000647 |
| huB1H2-V13 (antibody, human IgG1, kappa, V domains shown) VH: EVQLVQSGAEVKKPGSSVKVSCKASGYTLTNYVMHWMRQAPGQGLEWIGFIIPFNDGTKYNEHFKGRATLTSDKSTNTAYMELSSLRSEDTAVYYCARYDFEGYFDVWGAGTLVTVSS VL: DIQMTQSPSSLSASVGDRVTITCSASQDITNFLNWYQQKPGKAVKLLIYSTSRLHSGVPSRFSGSGSGTDFTLTISSLQPEDIATYYCQQYSNLPWTFGQGTKVEIKR | s⁻¹ | 0.000688 |
| huB1H2-V20 (antibody, human IgG1, kappa, V domains shown) VH: QVQLVQSGAEVKKPGASVKVSCKASGYTLTNYVMHWVRQAPGQGLEWIGFIIPFNDGTKYNEHFKGRVTITRDTSISTAYMQLSSLRSEDTAVYYCARYDFEGYFDVWGQGTLVTVSS VL: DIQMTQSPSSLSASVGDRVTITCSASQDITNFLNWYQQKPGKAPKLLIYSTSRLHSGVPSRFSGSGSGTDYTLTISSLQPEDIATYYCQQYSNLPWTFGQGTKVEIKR | s⁻¹ | 0.00141 |

Origin of values: patent US20230055711A1
